src = patent US20100298141A1

- System: barnyardgrass
- assay: Test C flooded paddy test
- Format: in vivo, Echinochloa crus-galli
- conditions: Flood, 250 g ai/ha; scale 0 to 100 (0 no effect, 100 complete control)
For each record, write down the corresponding Plant response rating, Barnyardgrass.
# answer = number (no unit)

-- ask Returns the measured Plant response rating, Barnyardgrass for the input compound. Input: Cc1cc[n+]([O-])c([S+]([O-])Cc2c(C(F)(F)F)nn(C)c2Cl)c1 (racemic)
-- reply 70

-- ask Now the same for `Cn1nc(C(F)(F)F)c(CS(=O)(=O)c2ccc(Br)c[n+]2[O-])c1OC(F)F`
-- reply 80

-- ask Now the same for Cn1nc(C(F)(F)F)c(C[S+]([O-])c2cc(C(C)(C)C)cc[n+]2[O-])c1OC(F)F (racemic)
-- reply 35
